Listing: pIC50 of selected compounds
biological target: 11-beta-hydroxysteroid dehydrogenase type 2 (Homo sapiens, UniProt P80365); experiment: Inhibition of human recombinant 11betaHSD2 transfected in intact HEK293 cells
Sequence (P80365 whole entry): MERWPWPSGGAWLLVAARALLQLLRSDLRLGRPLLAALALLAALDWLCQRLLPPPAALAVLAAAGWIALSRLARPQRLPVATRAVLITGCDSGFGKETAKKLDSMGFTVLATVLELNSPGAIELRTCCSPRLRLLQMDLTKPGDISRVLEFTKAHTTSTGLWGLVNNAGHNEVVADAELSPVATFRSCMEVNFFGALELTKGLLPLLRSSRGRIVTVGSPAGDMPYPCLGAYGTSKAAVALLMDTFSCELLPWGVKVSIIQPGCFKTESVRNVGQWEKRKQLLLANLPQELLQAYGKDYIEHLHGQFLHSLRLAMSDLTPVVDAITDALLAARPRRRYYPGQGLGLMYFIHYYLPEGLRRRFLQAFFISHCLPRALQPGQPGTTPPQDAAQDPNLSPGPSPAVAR
pIC50: −log10 of the molar value.
property_label: pIC50

smiles_structure | value_observed
COC(=O)[C@@]1(C)CC[C@]2(C)CC[C@]3(C)C(=CC(=O)[C@@H]4[C@@]5(C)CC[C@H](Oc6ccccc6C(=O)O)C(C)(C)[C@@H]5CC[C@]43C)[C@@H]2C1 | 4.32
CC1(C)[C@@H](N)CC[C@]2(C)[C@H]3C(=O)C=C4[C@@H]5C[C@@](C)(C(=O)O)CC[C@]5(C)CC[C@@]4(C)[C@]3(C)CC[C@@H]12 | 5.22

###

target: 11-beta-hydroxysteroid dehydrogenase 1 (Homo sapiens, UniProt P28845); assay: Inhibition of human recombinant 11-beta-HSD1 transfected in intact HEK293 cells
Sequence (P28845 whole entry): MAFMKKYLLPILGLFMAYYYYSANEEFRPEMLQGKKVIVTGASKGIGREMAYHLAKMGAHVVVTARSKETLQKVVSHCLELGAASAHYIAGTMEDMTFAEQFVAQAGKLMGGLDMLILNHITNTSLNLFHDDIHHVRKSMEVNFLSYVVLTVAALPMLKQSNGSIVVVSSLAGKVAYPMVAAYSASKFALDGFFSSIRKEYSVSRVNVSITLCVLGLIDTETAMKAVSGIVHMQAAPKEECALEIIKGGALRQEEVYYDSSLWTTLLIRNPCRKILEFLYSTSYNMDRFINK

molecule | IC50 / µM
CC1(C)[C@@H](N)CC[C@]2(C)[C@H]3C(=O)C=C4[C@@H]5C[C@@](C)(C(=O)O)CC[C@]5(C)CC[C@@]4(C)[C@]3(C)CC[C@@H]12 | 1.02
COc1ccc(CCNC(=O)C23CCC(C)(C(=O)C2=O)C3(C)C)cc1OC (stereo not drawn) | 5.21
COC(=O)[C@@]1(C)CC[C@]2(C)CC[C@]3(C)C(=CC(=O)[C@@H]4[C@@]5(C)CC[C@H](Oc6ccccc6C(=O)O)C(C)(C)[C@@H]5CC[C@]43C)[C@@H]2C1 | 3.84

###

molecular target: Glucocorticoid receptor (Homo sapiens, UniProt P04150); test: Inhibition of GR-mediated transactivation of galactosidase reporter gene in HEK293 cells in absence of 11betaHSD1; type: functional, cell-based
Sequence (P04150 whole entry): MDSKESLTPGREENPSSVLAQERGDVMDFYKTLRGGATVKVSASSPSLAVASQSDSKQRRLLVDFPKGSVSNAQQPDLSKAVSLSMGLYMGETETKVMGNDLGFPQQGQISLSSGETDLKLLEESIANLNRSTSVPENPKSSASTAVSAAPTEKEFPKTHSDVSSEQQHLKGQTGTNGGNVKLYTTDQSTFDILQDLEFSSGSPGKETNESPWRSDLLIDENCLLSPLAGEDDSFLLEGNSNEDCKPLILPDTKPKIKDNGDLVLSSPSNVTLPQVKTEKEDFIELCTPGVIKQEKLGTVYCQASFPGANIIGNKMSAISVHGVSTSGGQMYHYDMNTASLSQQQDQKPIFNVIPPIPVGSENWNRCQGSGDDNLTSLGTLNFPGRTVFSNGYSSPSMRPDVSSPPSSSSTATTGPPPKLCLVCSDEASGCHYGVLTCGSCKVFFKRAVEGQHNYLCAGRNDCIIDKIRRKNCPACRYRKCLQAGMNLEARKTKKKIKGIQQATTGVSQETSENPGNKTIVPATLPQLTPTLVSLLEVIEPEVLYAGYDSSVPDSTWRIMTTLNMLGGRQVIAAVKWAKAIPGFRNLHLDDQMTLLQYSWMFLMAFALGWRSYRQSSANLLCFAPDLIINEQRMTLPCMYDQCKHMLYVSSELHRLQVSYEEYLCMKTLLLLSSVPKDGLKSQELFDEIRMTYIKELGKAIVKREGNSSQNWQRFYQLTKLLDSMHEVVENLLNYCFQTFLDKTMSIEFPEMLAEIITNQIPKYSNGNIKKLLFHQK

molecule | IC50 [µM]
CC(=O)OC1CC[C@]2(C)C3=C(C(=O)C[C@H]2C1(C)C)[C@]1(C)CCC(C(C)CCC(=O)O)[C@@]1(C)CC3=O (stereo partly specified) | 11.8

###

target: Mineralocorticoid receptor (Homo sapiens, UniProt P08235); experiment: Antagonist activity against MR
Sequence (P08235 whole entry): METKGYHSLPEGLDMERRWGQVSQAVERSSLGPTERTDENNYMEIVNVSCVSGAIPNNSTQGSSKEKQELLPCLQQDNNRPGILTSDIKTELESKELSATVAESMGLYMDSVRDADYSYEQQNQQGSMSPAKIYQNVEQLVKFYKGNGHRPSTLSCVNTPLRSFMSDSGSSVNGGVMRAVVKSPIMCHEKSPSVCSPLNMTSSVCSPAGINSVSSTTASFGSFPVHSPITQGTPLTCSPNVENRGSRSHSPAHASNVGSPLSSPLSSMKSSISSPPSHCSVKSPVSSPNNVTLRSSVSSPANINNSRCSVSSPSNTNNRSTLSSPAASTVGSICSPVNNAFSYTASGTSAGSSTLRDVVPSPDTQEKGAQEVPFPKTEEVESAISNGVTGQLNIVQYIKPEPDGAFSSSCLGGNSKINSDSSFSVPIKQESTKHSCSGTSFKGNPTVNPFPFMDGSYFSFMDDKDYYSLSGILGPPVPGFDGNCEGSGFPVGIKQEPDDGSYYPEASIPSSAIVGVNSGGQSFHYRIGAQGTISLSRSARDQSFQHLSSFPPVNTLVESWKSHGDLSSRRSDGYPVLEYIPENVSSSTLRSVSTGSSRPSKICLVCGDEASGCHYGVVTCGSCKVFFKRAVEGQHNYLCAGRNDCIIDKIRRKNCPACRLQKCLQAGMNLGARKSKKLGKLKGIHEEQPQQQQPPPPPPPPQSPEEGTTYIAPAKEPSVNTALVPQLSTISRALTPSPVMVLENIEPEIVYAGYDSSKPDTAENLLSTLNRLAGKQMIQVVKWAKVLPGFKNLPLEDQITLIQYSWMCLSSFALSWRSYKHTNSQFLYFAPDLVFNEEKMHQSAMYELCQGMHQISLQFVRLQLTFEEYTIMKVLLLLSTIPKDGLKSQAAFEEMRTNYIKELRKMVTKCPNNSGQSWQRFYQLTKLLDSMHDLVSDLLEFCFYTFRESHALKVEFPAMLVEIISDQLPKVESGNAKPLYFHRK

molecule | target_under_test | IC50
CC(=O)OC1CC[C@]2(C)C3=C(C(=O)C[C@H]2C1(C)C)[C@]1(C)CCC(C(C)CCC(=O)O)[C@@]1(C)CC3=O (stereo partly specified) | Mineralocorticoid receptor (Homo sapiens, UniProt P08235) | 21 µM

###

Listing: pIC50 of selected compounds
biological target: UniProt:P14061; test: Inhibition of human recombinant 17betaHSD1 expressed in HEK293 cells
Sequence (P14061 whole entry): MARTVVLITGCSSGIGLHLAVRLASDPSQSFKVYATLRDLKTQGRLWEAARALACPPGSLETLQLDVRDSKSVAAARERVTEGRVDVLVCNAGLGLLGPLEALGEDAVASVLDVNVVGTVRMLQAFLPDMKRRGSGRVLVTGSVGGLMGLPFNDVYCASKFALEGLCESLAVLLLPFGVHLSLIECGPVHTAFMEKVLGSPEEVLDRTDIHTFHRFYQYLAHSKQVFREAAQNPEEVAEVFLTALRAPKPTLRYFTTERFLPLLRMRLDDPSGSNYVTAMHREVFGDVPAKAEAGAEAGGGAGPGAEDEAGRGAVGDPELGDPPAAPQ
pIC50: −log10 of the molar value.
property_label: pIC50

compound | property_label | bound_operator | value_observed
CC1(C)[C@@H](N)CC[C@]2(C)[C@H]3C(=O)C=C4[C@@H]5C[C@@](C)(C(=O)O)CC[C@]5(C)CC[C@@]4(C)[C@]3(C)CC[C@@H]12 | pIC50 | < | 4.52
COc1ccc(CCNC(=O)C23CCC(C)(C(=O)C2=O)C3(C)C)cc1OC (centres undefined) | pIC50 | = | 4.69
CC(=O)O[C@H]1CC[C@]2(C)[C@H]3C(=O)C=C4[C@@H]5C[C@@](C)(C(=O)O)CC[C@]5(C)CC[C@@]4(C)[C@]3(C)CC[C@H]2C1(C)C [ACETOXOLONE] | pIC50 | = | 4.73
C[C@H]1C[C@@]2(C)CC[C@](C)(C(=O)N[C@H](Cc3ccccc3)C(=O)O)C[C@@]2(C)C2=CC(=O)[C@@H]3[C@@]4(C)CC[C@H](O)C(C)(C)[C@@H]4CC[C@@]3(C)[C@@]21C | pIC50 | < | 4.52

###

target: 11-beta-hydroxysteroid dehydrogenase 1 (Mus musculus, UniProt P50172); test: Inhibition of 11-beta-HSD1-dependent cortisone conversion to cortisol in mouse intact C2C12 cells; assay type: functional, cell-based
Sequence (P50172 whole entry): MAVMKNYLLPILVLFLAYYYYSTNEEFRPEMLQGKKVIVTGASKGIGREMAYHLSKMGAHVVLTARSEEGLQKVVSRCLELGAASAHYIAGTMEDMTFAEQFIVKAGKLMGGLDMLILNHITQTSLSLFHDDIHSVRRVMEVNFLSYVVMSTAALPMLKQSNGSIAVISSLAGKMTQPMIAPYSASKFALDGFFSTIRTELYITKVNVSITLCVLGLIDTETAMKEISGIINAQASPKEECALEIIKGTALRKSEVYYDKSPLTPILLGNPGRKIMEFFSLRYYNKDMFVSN
pIC50: −log10 of the molar value.

molecule | target_under_test | pIC50
COc1ccc(CCNC(=O)C23CCC(C)(C(=O)C2=O)C3(C)C)cc1OC (stereo unspecified) | 11-beta-hydroxysteroid dehydrogenase 1 (Mus musculus, UniProt P50172) | 5.38

Sourced from ChEMBL document CHEMBL1148531
